Molecular target: S. aureus FtsZ (Staphylococcus aureus, UniProt P0A031)
Sequence (P0A031 1-390): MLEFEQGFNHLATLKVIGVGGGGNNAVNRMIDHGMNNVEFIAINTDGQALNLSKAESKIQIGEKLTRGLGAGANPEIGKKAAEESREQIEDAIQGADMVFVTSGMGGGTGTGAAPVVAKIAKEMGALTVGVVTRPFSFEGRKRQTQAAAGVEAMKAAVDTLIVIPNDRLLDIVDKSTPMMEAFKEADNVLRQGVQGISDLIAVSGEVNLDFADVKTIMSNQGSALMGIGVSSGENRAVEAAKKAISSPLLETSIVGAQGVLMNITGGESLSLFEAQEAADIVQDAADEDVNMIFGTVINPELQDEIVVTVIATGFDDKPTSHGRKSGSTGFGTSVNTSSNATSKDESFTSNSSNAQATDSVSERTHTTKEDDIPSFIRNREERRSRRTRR
Test: Inhibition of S. aureus FtsZ polymerization and GTPase activity (Tests A and B)
Type: biochemical
Settings: S. aureus FtsZ; polymerization and/or GTPase activity; read-out: IC50 (compound concentration at which FtsZ polymerization and/or GTPase activity is inhibited by 50%)
Reported endpoint: IC50

Exam item: Short answer please: IC50, S. aureus FtsZ (Staphylococcus aureus, UniProt P0A031), entry CCC[n+]1cc(-c2cc(OC)c(OC)c(-c3ccc(C(C)(C)C)cc3)c2)cc2cc(OC)c(OC)cc21.[I-]
Marked response: < 79.7 µM

Exam item: Short answer please: IC50, S. aureus FtsZ (Staphylococcus aureus, UniProt P0A031), entry CC(C)(C)c1ccc(-c2cccc3c(CN)cccc23)cc1
Marked response: < 173 µM

Exam item: Short answer please: IC50, S. aureus FtsZ (Staphylococcus aureus, UniProt P0A031), entry C[n+]1cccc2cc(-c3ccc(-c4ccccc4)cc3)ccc21.[I-]
Marked response: < 118 µM

Exam item: Short answer please: IC50, S. aureus FtsZ (Staphylococcus aureus, UniProt P0A031), entry CC(C)(C)c1ccc(-c2cccc3c(CNC(=N)N)cccc23)cc1
Marked response: < 151 µM

Exam item: Short answer please: IC50, S. aureus FtsZ (Staphylococcus aureus, UniProt P0A031), entry CC(C)(C)c1ccc(-c2cccc3cc(-c4ccccc4C[N+](C)(C)C)ccc23)cc1.[I-]
Marked response: < 93.4 µM

Exam item: Short answer please: IC50, S. aureus FtsZ (Staphylococcus aureus, UniProt P0A031), entry CC(C)(C)c1ccc(-c2cccc3cc(-c4ccccc4CNC(=N)N)ccc23)cc1
Marked response: < 123 µM

====

target: UniProtKB P0A031; assay: Inhibition of S. aureus FtsZ polymerization and GTPase activity (Tests A and B); format: biochemical
Assignment: determine reported IC50 for the given compounds.

Exam item: Sample C[n+]1ccc2c(-c3ccc(-c4ccccc4)cc3)cccc2c1.[I-] [Example 112] — what was its IC50?
Marked response: < 118 µM

Exam item: Sample C[n+]1ccc(-c2ccc(-c3ccccc3)cc2)c2ccccc21.[I-] [Example 120] — what was its IC50?
Marked response: < 118 µM

Source listed as patent US9102617B2.
